The measured values listed here are drawn from patent US11426397B2.

system tested: GPR6 receptor expressed in CHO-K1 cells (Homo sapiens, UniProt P46095)
Construct: expressed in transfected cells
Sequence (P46095 whole entry): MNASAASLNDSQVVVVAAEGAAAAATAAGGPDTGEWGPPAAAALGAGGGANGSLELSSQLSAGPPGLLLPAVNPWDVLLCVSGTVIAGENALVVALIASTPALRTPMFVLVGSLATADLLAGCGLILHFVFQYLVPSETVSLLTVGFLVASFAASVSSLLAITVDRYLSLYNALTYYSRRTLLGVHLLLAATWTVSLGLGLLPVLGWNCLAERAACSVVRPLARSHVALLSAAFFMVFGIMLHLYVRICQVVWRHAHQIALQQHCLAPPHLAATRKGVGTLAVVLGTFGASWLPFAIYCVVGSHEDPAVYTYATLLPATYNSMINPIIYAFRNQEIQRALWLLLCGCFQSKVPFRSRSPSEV
experimental protocol: In vitro inhibition of cAMP (EC50), cell-based HTRF cAMP assay
condition label: inhibition of constitutive cAMP activity of GPR6 in CHO-K1 cells
reported endpoint: pEC50, in vitro inhibition of cAMP

compound: COc1nn(C)cc1C(=O)Nc1cc(C#N)cnc1N1CCN(Cc2c(F)cc(F)c(OC)c2F)CC1 [Example 171]
system tested: GPR6 receptor expressed in CHO-K1 cells (Homo sapiens, UniProt P46095)
reported endpoint: pEC50, in vitro inhibition of cAMP
quantitative readout: 6.6
--
compound: COc1nn(C)cc1C(=O)Nc1cc(C#N)cnc1N1CCN(Cc2ccccc2OC(F)F)CC1 [Example 163]
system tested: GPR6 receptor expressed in CHO-K1 cells (Homo sapiens, UniProt P46095)
reported endpoint: pEC50, in vitro inhibition of cAMP
quantitative readout: 6.7
--
compound: COc1ccncc1C(=O)Nc1ccc(C)nc1N1CCC(Oc2ccc(F)cc2F)CC1 [Example 62]
system tested: GPR6 receptor expressed in CHO-K1 cells (Homo sapiens, UniProt P46095)
reported endpoint: pEC50, in vitro inhibition of cAMP
quantitative readout: 7.3
--
compound: COc1nc2c(cc1C(=O)Nc1cc(C#N)ccc1N1CCC(Oc3ccc(F)cc3F)CC1)CCC2 [Example 196]
system tested: GPR6 receptor expressed in CHO-K1 cells (Homo sapiens, UniProt P46095)
reported endpoint: pEC50, in vitro inhibition of cAMP
quantitative readout: 6.7
--
compound: COc1c(C(=O)Nc2ccc(C#N)nc2N2CCC(Oc3ccc(F)cc3F)CC2)cnn1C [Example 256]
system tested: GPR6 receptor expressed in CHO-K1 cells (Homo sapiens, UniProt P46095)
reported endpoint: pEC50, in vitro inhibition of cAMP
quantitative readout: 6.7
--
compound: CN(C(=O)c1ccccc1O)c1ccccc1N1CCN(C(=O)c2ccc(Cl)cc2)CC1 [Example 260]
system tested: GPR6 receptor expressed in CHO-K1 cells (Homo sapiens, UniProt P46095)
reported endpoint: pEC50, in vitro inhibition of cAMP
quantitative readout: 4.9
--
compound: COc1cnccc1C(=O)Nc1cc(C#N)ccc1N1CCC(Oc2ccc(F)cc2F)CC1 [Example 25]
system tested: GPR6 receptor expressed in CHO-K1 cells (Homo sapiens, UniProt P46095)
reported endpoint: pEC50, in vitro inhibition of cAMP
quantitative readout: 7.0
--
compound: N#Cc1ccc(N2CCC(Oc3ccc(F)cc3F)CC2)c(NC(=O)c2cccn(Cc3ccccn3)c2=O)c1 [Example 203]
system tested: GPR6 receptor expressed in CHO-K1 cells (Homo sapiens, UniProt P46095)
reported endpoint: pEC50, in vitro inhibition of cAMP
quantitative readout: 5.6
